molecular target: UniProt:P35968; test: Inhibition of VEGF-stimulated VEGFR2 phosphorylation in human HUVEC cells at 100 nM preincubated for 2 hrs followed by VEGF stimulation by Western blot analysis; type: cell-based
Sequence (P35968 whole entry): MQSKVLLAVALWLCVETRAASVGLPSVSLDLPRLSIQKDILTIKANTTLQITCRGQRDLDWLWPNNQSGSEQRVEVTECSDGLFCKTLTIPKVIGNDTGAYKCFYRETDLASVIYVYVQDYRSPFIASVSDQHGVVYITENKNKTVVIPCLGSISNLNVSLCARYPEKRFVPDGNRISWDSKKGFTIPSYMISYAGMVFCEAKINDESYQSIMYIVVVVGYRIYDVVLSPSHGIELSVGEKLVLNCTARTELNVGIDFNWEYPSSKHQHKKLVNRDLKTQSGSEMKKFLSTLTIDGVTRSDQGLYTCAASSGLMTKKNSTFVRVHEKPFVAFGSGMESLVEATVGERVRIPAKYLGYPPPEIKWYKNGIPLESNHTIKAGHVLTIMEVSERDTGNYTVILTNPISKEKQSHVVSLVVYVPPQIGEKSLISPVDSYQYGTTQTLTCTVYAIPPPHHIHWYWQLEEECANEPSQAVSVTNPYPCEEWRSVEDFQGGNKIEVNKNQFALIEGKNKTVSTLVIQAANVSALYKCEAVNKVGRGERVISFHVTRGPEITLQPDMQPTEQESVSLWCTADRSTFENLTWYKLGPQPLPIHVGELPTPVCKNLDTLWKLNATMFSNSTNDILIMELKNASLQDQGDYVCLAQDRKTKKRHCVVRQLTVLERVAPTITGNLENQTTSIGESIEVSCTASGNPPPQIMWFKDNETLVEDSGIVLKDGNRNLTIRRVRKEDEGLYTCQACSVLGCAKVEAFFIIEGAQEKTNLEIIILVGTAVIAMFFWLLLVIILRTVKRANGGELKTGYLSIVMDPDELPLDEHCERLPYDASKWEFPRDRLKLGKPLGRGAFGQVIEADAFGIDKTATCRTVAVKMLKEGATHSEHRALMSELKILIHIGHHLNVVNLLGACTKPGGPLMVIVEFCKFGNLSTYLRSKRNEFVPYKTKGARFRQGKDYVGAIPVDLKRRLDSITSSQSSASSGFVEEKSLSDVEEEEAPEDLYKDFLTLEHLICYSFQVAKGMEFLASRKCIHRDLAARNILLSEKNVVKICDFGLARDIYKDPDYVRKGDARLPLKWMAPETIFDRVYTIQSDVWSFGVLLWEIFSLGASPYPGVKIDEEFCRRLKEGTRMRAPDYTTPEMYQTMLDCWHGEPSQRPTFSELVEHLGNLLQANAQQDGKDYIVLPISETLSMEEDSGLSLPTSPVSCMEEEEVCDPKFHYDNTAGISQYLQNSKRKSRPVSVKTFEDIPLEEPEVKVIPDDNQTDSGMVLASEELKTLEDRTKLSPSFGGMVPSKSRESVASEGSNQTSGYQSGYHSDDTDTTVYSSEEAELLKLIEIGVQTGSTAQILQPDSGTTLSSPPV
Activity calls are given as the source filed them. No cut-off for these calls is given here.
readout_label: inhibition

- record_smiles: "O=C(CCCCCCC(=O)Nc1ccccc1)NO"
  val: "inactive"
- record_smiles: "Cc1c2ccc(N(C)c3ccnc(Nc4ccc(C(=O)Nc5ccccc5N)cc4)n3)cc2nn1C"
  val: "Active"
- record_smiles: "Cc1ccc(Nc2nccc(N(C)c3ccc4c(C)n(C)nc4c3)n2)cc1S(N)(=O)=O"
  val: "Active"
- record_smiles: "Cc1c2ccc(N(C)c3ccnc(Nc4ccc(C(=O)NCCCCCCC(=O)NO)cc4)n3)cc2nn1C"
  val: "Active"
- record_smiles: "Nc1ccccc1NC(=O)c1ccc(CNC(=O)OCc2cccnc2)cc1"
  val: "inactive"

----------
biological target: UniProt:P17948
Sequence (P17948 whole entry): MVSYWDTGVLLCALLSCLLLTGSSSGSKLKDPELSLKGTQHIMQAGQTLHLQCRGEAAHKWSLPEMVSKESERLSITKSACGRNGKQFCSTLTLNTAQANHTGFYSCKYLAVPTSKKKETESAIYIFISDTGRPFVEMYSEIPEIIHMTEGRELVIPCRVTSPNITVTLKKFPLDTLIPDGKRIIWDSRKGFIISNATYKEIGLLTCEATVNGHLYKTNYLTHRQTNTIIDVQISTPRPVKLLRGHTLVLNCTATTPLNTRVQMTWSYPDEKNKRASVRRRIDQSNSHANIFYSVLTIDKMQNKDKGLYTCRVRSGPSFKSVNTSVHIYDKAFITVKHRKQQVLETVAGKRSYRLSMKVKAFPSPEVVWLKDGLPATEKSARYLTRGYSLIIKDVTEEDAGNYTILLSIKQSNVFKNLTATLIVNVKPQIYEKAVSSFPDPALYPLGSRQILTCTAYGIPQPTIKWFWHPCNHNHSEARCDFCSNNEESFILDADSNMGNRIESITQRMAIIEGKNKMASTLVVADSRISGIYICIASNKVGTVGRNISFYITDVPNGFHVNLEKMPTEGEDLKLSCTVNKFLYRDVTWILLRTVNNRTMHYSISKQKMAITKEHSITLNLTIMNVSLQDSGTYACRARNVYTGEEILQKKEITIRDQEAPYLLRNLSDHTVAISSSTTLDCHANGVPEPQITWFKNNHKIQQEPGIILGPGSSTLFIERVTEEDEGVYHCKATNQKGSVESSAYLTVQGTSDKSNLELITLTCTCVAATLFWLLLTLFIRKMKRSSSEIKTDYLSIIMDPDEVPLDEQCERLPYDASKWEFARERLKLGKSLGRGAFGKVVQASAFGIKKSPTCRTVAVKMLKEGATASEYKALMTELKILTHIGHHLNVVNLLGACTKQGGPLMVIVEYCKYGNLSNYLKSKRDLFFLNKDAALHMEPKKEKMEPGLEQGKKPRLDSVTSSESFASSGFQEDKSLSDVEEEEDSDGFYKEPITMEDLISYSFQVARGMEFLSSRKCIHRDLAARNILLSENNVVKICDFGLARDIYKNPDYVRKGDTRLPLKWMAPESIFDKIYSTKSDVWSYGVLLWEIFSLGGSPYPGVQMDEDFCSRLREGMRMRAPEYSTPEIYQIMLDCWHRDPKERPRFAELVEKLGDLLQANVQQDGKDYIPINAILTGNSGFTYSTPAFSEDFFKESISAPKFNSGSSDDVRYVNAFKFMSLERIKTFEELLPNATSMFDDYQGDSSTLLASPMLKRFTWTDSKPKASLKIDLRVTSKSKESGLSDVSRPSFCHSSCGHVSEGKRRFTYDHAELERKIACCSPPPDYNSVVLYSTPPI
readout_label: IC50 (µM)

- record_smiles: "Cc1c2ccc(N(C)c3ccnc(Nc4ccc(C(=O)NCCCCCCC(=O)NO)cc4)n3)cc2nn1C"
  unit_descriptor: "µM"
  val: 0.035

----------
assay: Tmax in Sprague-Dawley rat at 10 mg/kg, po by LC-MS/MS analysis; format: ADME, organism-based; conditions: in vivo

- record_smiles: "Cc1c2ccc(N(C)c3ccnc(Nc4ccc(C(=O)Nc5ccccc5N)cc4)n3)cc2nn1C"
  unit_descriptor: "min"
  Tmax: 30

----------
assay: Half life in Sprague-Dawley rat at 10 mg/kg, po by LC-MS/MS analysis; type: ADME, organism-based; settings: in vivo
readout_label: half-life (h)

- record_smiles: "Cc1c2ccc(N(C)c3ccnc(Nc4ccc(C(=O)Nc5ccccc5N)cc4)n3)cc2nn1C"
  unit_descriptor: "h"
  val: 2.1

----------
test system: KG-1; test: Antiproliferative activity against human KG1 cells after 72 hrs by MTT assay; type: functional, cell-based; conditions: KG-1, 72 h
readout_label: IC50 (nM)

- record_smiles: "Cc1c2ccc(N(C)c3ccnc(Nc4ccc(C(=O)Nc5ccccc5N)cc4)n3)cc2nn1C"
  readout_label: "IC50"
  unit_descriptor: "nM"
  val: 670
- record_smiles: "Cc1c2ccc(N(C)c3ccnc(Nc4ccc(C(=O)NCCCCCCCC(=O)NO)cc4)n3)cc2nn1C"
  readout_label: "IC50"
  unit_descriptor: "nM"
  val: 930
- record_smiles: "Cc1c2ccc(N(C)c3ccnc(Nc4ccc(C(=O)NCCCCCCCC(=O)Nc5ccccc5N)cc4)n3)cc2nn1C"
  readout_label: "IC50"
  unit_descriptor: "nM"
  val: 2680
- record_smiles: "Cc1c2ccc(N(C)c3ccnc(Nc4ccc(C(=O)NCCCCCC(=O)Nc5ccccc5N)cc4)n3)cc2nn1C"
  readout_label: "IC50"
  unit_descriptor: "nM"
  val: 3150
- record_smiles: "Cc1c2ccc(N(C)c3ccnc(Nc4ccc(C(=O)NCCCCCC(=O)NO)cc4)n3)cc2nn1C"
  readout_label: "IC50"
  unit_descriptor: "nM"
  val: 2310

----------
// IC50 lookup, one value per entry
test system: ACHN; assay: Antiproliferative activity against human ACHN cells after 72 hrs by MTT assay; format: functional, cell-based
readout_label: IC50

- record_smiles: "Cc1c2ccc(N(C)c3ccnc(Nc4ccc(C(=O)Nc5ccccc5N)cc4)n3)cc2nn1C"
  readout_label: "IC50"
  val: "> 5 µM"
- record_smiles: "Cc1c2ccc(N(C)c3ccnc(Nc4ccc(/C=C/C(=O)NO)cc4)n3)cc2nn1C"
  readout_label: "IC50"
  val: "3.85 µM"
- record_smiles: "Cc1c2ccc(N(C)c3ccnc(Nc4ccc(C(=O)NCCCCCCCC(=O)Nc5ccccc5N)cc4)n3)cc2nn1C"
  readout_label: "IC50"
  val: "3.62 µM"
- record_smiles: "Cc1c2ccc(N(C)c3ccnc(Nc4ccc(C(=O)NCCCCCCC(=O)NO)cc4)n3)cc2nn1C"
  readout_label: "IC50"
  val: "> 5 µM"
- record_smiles: "Cc1ccc(Nc2nccc(N(C)c3ccc4c(C)n(C)nc4c3)n2)cc1S(N)(=O)=O"
  readout_label: "IC50"
  val: "> 5 µM"
- record_smiles: "Nc1ccccc1NC(=O)c1ccc(CNC(=O)OCc2cccnc2)cc1"
  readout_label: "IC50"
  val: "2.4 µM"

The reported numbers originate from ChEMBL document CHEMBL4190394.
